Exercise: for every item that follows, state its recorded Kochia plant response rating (0 to 100 scale).
System: kochia (Bassia scoparia)
Experiment: Test A postemergence application, visual injury rating 0-100
Type: in vivo
Details: Postemergence, 16 g ai/ha, greenhouse 10 days; 0 no effect, 100 complete control
Write no unit; give the number alone.

I have this compound here, COC(=O)C1C=CC(NC(=O)C2(C(F)(F)F)CN(c3cc(F)c(F)c(F)c3)C(=O)O2)C1 (mixture of isomers) [Compound 162] , and I need its recorded Kochia plant response rating (0 to 100 scale).
0

Entry to check: C=CC1(C(=O)NC2C=CC(C(=O)O)C2)CN(c2cc(F)cc(F)c2)C(=O)O1 (mixture of isomers) [Compound 166]
80

Would you kindly repeat that for COC(=O)COC(=O)C1=CCC(NC(=O)C2(C)CN(c3cc(F)cc(F)c3)C(=O)O2)C1 (centres unmarked) [Compound 108] ?
80

What do you get for CC1(C(=O)NC2C=CC(C(=O)O)C2)CN(c2cc(Cl)c(F)c(Cl)c2)C(=O)O1 (centres unmarked) [Compound 124] ?
30

CCOC(=O)C1=CCC(NC(=O)C2(C)CN(c3cc(F)cc(F)c3)C(=O)O2)C1 (centres unmarked) [Compound 112] ?
60

Now consider CC(C)OC(=O)C1=CCC(NC(=O)C2(C)CN(c3cc(Cl)cc(Cl)c3)C(=O)O2)C1 (centres unmarked) [Compound 105] and answer again.
0

Param item: CCOC(=O)C1C=CC(NC(=O)C2(C)CN(c3cc(C)cc(C)c3)C(=O)O2)C1 (centres unmarked) [Compound 116]
20

Item: CCOC(=O)C1C=CC(NC(=O)C2(C)CN(c3cccc(OC(F)(F)F)c3)C(=O)O2)C1 (centres unmarked) [Compound 102]
0

Consider next the compound COC(=O)C1CC(NC(=O)C2(C)CN(c3cc(F)cc(F)c3)C(=O)O2)C1 (centres unmarked) [Compound 118] in the same way.
30

Now give it for CC1(C(=O)NC2CC=C(C(=O)O)C2)CN(c2cc(F)cc(F)c2)C(=O)O1 (centres unmarked) [Compound 94] too.
80

Try the compound COC(=O)C1=CCC(NC(=O)C2(C)CN(c3cc(Cl)c(F)c(Cl)c3)C(=O)O2)C1 (centres unmarked) [Compound 129]
50

Follow-up item: CC1(C(=O)NC2C=CC(C(=O)O)C2)CN(c2cc(F)cc(F)c2)C(=O)O1 (centres unmarked) [Compound 138]
80

How about this compound: COC(=O)C1C=CC(NC(=O)C2(C)CN(c3cc(F)cc(F)c3)C(=O)O2)C1 (centres unmarked) [Compound 92]
0

Can you check CC1(C(=O)NC2C=CC(C(=O)O)C2)CN(c2cc(F)cc(F)c2)C(=O)O1 (centres unmarked) [Compound 131] next?
20

Now give it for COC(=O)C1C=CC(NC(=O)C2(C)CN(c3cccc(OC(F)(F)F)c3)C(=O)O2)C1 (mixture of isomers) [Compound 101] too.
10

Also, C=CC1(C(=O)NC2COC(C(=O)OC)C2)CN(c2cc(F)cc(F)c2)C(=O)O1 (centres unmarked) [Compound 171] please.
60

And what about the compound CC(C)COC(=O)C1=CCC(NC(=O)C2(C)CN(c3cc(Cl)cc(Cl)c3)C(=O)O2)C1 (centres unmarked) [Compound 156] ?
80

Now try COC(=O)C1CC(NC(=O)C2(C)CN(c3cc(F)cc(F)c3)C(=O)O2)C1 (centres unmarked) [Compound 117] .
0

Request: CC(C)COC(=O)C1=CCC(NC(=O)C2(C)CN(c3cc(F)cc(F)c3)C(=O)O2)C1 (centres unmarked) [Compound 98]
80

# repeat for C=CC1(C(=O)NC2CC=C(C(=O)OC)C2)CN(c2cc(F)cc(F)c2)C(=O)O1 (racemic) [Compound 169]
80

Request: CC1(C(=O)NC2C=CC(C(=O)O)C2)CN(c2cc(F)c(F)c(F)c2)C(=O)O1 (centres unmarked) [Compound 123]
0

Please give the result for CC1(C(=O)NC2CC=C(C(=O)O)C2)CN(c2cc(F)cc(Cl)c2)C(=O)O1 (centres unmarked) [Compound 159] too.
70

Proceed to COC(=O)C1C=CC(NC(=O)C2(C)CN(c3cc(F)cc(F)c3)C(=O)O2)C1 (centres unmarked) [Compound 89]
80

----------
Assignment: determine reported Amaranth, Palmer / Pigweed, Palmer plant response rating (0 to 100 scale) for the given compounds.
Test system: palmer (palmer amaranth, palmer pigweed, Amaranthus palmeri)
Experiment: Test A postemergence application, visual injury rating 0-100
Assay type: in vivo
Settings: Postemergence, 31 g ai/ha, greenhouse 10 days; 0 no effect, 100 complete control
// no unit string in output, number only

Need Amaranth, Palmer / Pigweed, Palmer plant response rating (0 to 100 scale) of CCS(=O)(=O)NC(=O)C1C=CC(NC(=O)C2(C)CN(c3cc(F)cc(F)c3)C(=O)O2)C1 (stereo not shown) , thanks.
70

Same read-out for CC1(C(=O)NC2CC=C(C(=O)NS(=O)(=O)C3CC3)C2)CN(c2cc(Cl)cc(Cl)c2)C(=O)O1 (stereo not shown) ?
70

Cool, now CC(C)OC(=O)C1=CCC(NC(=O)C2(C)CN(c3cc(Cl)cc(Cl)c3)C(=O)O2)C1 (stereo not shown)
90

Now try CC1(C(=O)NC2C=CC(C(=O)NS(=O)(=O)C(C)(C)C)C2)CN(c2cc(F)cc(F)c2)C(=O)O1 (stereo not shown) .
50

Please do the same for CC(C)COC(=O)C1C=CC(NC(=O)C2(C)CN(c3cc(Cl)cc(Cl)c3)C(=O)O2)C1 (stereo not shown) as well.
90

Follow-up item: CC1(C(=O)NC2C=CC(C(=O)NS(=O)(=O)C3CC3)C2)CN(c2cc(Cl)cc(Cl)c2)C(=O)O1 (stereo not shown)
40

Now the same for COC(=O)COC(=O)C1C=CC(NC(=O)C2(C)CN(c3cc(Cl)cc(Cl)c3)C(=O)O2)C1 (stereo not shown)
90

----------
Could you please report measured Wheat plant response rating (0 to 100 scale) for the items listed next?
System: wheat (Triticum aestivum)
Test: Test A preemergence soil spray, visual injury rating 0-100
Format: in vivo
Conditions: 125 g ai/ha, 10 days, 0 = no effect, 100 = complete control
Note: the reply should be a number with no unit written.

I have this molecule here, CC(C)COC(=O)C1=CCC(NC(=O)C2(C)CN(c3cc(F)cc(F)c3)C(=O)O2)C1 (stereo not shown) [Compound 98] , and I need its recorded Wheat plant response rating (0 to 100 scale).
70

Consider next the molecule COC(=O)C1C=CC(NC(=O)C2(C)CN(c3cc(Cl)cc(Cl)c3)C(=O)O2)C1 (stereo not shown) [Compound 42] in the same way.
90

And for COC(=O)C1C=CC(NC(=O)C2(C)CN(c3cc(F)cc(Cl)c3)C(=O)O2)C1 (stereo not shown) [Compound 17] ?
90

Repeat for the following molecule: CONC(=O)C1CC(NC(=O)C2(C)CN(c3cc(F)cc(F)c3)C(=O)O2)CO1 (stereo not shown) [Compound 41]
0

----------
Test system: ryegrass, Italian (italian ryegrass, Lolium multiflorum)
Assay: Test A postemergence application, visual injury rating 0-100
Format: in vivo
Details: Postemergence, 31 g ai/ha, greenhouse 10 days; 0 no effect, 100 complete control
measured.property: Ryegrass, Italian plant response rating (0 to 100 scale)
Enter a number only.

Recorded Ryegrass, Italian plant response rating (0 to 100 scale) for CCCS(=O)(=O)OC(=O)C1C=CC(NC(=O)C2(C)CN(c3cc(Cl)cc(Cl)c3)C(=O)O2)C1 (mixture of isomers) , please?
50

Param item: CC(=O)COC(=O)C1C=CC(NC(=O)C2(C)CN(c3cc(Cl)cc(Cl)c3)C(=O)O2)C1 (centres unmarked)
70

Queued: CC1(C(=O)NC2C=CC(C(=O)NS(=O)(=O)c3ccccc3)C2)CN(c2cc(F)cc(F)c2)C(=O)O1 (centres unmarked)
50

What do you have for CCS(=O)(=O)NC(=O)C1C=CC(NC(=O)C2(C)CN(c3cc(F)cc(F)c3)C(=O)O2)C1 (centres unmarked) ?
50

Try this compound next: CC1(C(=O)NC2CC=C(C(=O)OCC(F)(F)F)C2)CN(c2cc(Cl)cc(Cl)c2)C(=O)O1 (centres unmarked)
60

----------
Kindly state Foxtail, Green plant response rating (0-100) for each of the entries shown.
System: green foxtail (Setaria viridis)
Test: Test A postemergence application, visual injury rating 0-100
Assay type: in vivo
Settings: 31 g ai/ha, postemergence, 10 days, 0 = no effect, 100 = complete control
// keep it numeric: no unit symbol after the value

What does the record list as Foxtail, Green plant response rating (0-100) for CC1(C(=O)NC2C=CC(C(=O)O)C2)CN(c2cc(F)cc(Cl)c2)C(=O)O1 (stereo not drawn) ?
90

Another compound to look at: CCOC(=O)C1=CCC(NC(=O)C2(C)CN(c3cc(F)cc(F)c3)C(=O)O2)C1 (stereo not drawn)
90

Entry COC(=O)C1C=CC(NC(=O)C2(C)CN(c3cc(F)cc(Cl)c3)C(=O)O2)C1 (stereo not drawn) please
80

Same again, this time with CC(C)OC(=O)C1C=CC(NC(=O)C2(C)CN(c3cc(F)cc(Cl)c3)C(=O)O2)C1 (stereo not drawn)
90

Can you handle CC(C)OC(=O)C1CCC(NC(=O)C2(C)CN(c3cc(F)cc(F)c3)C(=O)O2)C1 (stereo not drawn) next?
20

Next compound up: CONC(=O)C1CC(NC(=O)C2(C)CN(c3cc(F)cc(F)c3)C(=O)O2)CO1 (stereo not drawn)
0
